Reported TGI values follow for various molecules
- Test system: SF-295 CNS
- assay-method-text: NCI tumour cell line growth inhibition, 48 h
Supply the numeric figure in µM, leaving out any unit text.

CN1CCC(n2cc(Nc3ncc4c(=O)n(-c5c(Cl)cccc5Cl)cc(Br)c4n3)cn2)CC1; 15.5
Cc1ccc2c(n1)C(=O)C(Cl)=C(Nc1ccc(C(C)C)cc1)C2=O; 13
COc1ccc(/C=N/NC2=NC3C(S2)N(C)C(=O)N3C)cc1 (stereo not given); 12.7
C=C1C(=O)O[C@@H]2/C=C(/C)C3=CC(=O)[C@@](C)(C[C@H](OC(=O)/C(C)=C\C)[C@@H]12)O3; 13.4

As a next step, examine the molecule that follows.
Input line: For the molecule Nc1nc(N)c2c(n1)NC(c1ccccc1)CC(c1ccc(Nc3nc(NCCO)nc(Nc4ccc(Cl)cc4)n3)cc1)=N2 (stereo not given) , what TGI is on record?
Output line: 2.97

All values here come from PubChem BioAssay (NCI).
